Molecular target: T1, human TROP2-his protein (human, UniProt P09758 27-274)
T1 construct: Biotin-labelled in the ELISAs, unlabelled analyte in Biacore; also called biotin-labeled human TROP2-his protein; biotin human Trop2-his
T1 sequence: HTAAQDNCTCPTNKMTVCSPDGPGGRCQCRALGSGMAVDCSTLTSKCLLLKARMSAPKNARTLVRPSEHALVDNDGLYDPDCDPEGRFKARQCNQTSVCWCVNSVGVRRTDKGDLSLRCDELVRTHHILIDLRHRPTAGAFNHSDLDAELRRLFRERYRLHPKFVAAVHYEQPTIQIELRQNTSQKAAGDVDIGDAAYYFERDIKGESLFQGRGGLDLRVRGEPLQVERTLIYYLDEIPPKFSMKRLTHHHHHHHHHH
Test: SPR Biacore T200, supernatant antibody captured on anti-human IgG CM5 chip, 40 nM human TROP2-his
observedProperty: Kd (nM)
The reply should be a number in nM, with the unit left off.

Examples from the recorded data:
# binder, observedValue
records = [
    ("huA1E4F7D4-V2 (antibody, human IgG1, kappa, V domains shown, Positions of the X residues are printed in CLM-00002, CLM-00003 and CLM-00005; Tested as cell supernatant) VH: QVQLVQSGAEVKKPGASVKVSCKASGYSFTTHWIHWVRQAPGQGLEWIGTIFPSNAYAVYNQKFRDRATMTADRSISTAYIELSRLRSDDTAVYYCARASYFDYWGQGTTVTVSS VL: EIVLTQSPATLSLSPGERATLSCRASQNIGTSIHWFQQKPGGSPRLLIKYASESISGIPSRFSGSGSGTDFTLTISSLEPEDFAVYYCQHSHSWPFTFGQGTKLEIKR", 0.215),
    ("huA1E4F7D4-V5 (antibody, human IgG1, kappa, V domains shown, Positions of the X residues are given in the claims; Tested as cell supernatant) VH: QVQLVQSGAEVKKPGASVKVSCKASGYSFTTHWIHWVRQAPGQGLEWIGTIFPSNAYAVYNQKFRDRATMTRDRSISTAYIELSRLRSDDTAVYYCARASYFDYWGQGTTVTVSS VL: EIVLTQSPATLSLSPGERATLSCRASQNIGTSIHWFQQKPGGSPRLLIKYASESISGIPSRFSGSGSGTDFTLTISSLEPEDFAVYYCQHSHSWPFTFGQGTKLEIKR", 0.353),
]

The record that follows has no Kd shown yet.
-- ask For the binder shown here, huA1E4F7D4-V21 (antibody, human IgG1, kappa, V domains shown, Positions of the X residues are given in the claims; Tested as cell supernatant) VH: QVQLVQSGAEVKKPGASVKVSCKASGYSFTTHWIHWVRQAPGQGLEWIGTIFPSNAYAVYNQKFRDRATMTADTSISTAYIELSRLRSDDTAVYYCARASYFDYWGQGTTVTVSS VL: EIVLTQSPATLSLSPGERATLSCRASQNIGTSIHWFQQKPGGSPRLLIYYASESISGIPSRFSGSGSGTDFTLTISSLEPEDFAVYYCQHSHSWPFTFGQGTKLEIKR , give the reported Kd.
-- reply 0.188
